- Assay summary: Pharmacokinetic parameters for Indomethacin evaluated after oral administration of Indomethacin capsules.
- Format: ADME, organism-based
- Recorded conditions: human, in vivo, dosed compound id 57, dosed compound name INDOMETHACIN, tissue Plasma
Metric name: half-life (h)
Answer in h, number only, no unit symbol.

**Q:** Fill in half-life for record COc1ccc2c(c1)c(CC(=O)O)c(C)n2C(=O)c1ccc(Cl)cc1
**A:** 4.5
